biological target: RPS10 40S ribosomal protein S10 (Homo sapiens, UniProt P46783); construct: isoTOP-ABPP experiments performed in cell lysates (in vitro); endogenous in cells; host or cells: soluble proteome of human cancer cell lines (MDA-MB-231; Ramos and Jurkat also prepared); test: competitive isoTOP-ABPP; format: binding; settings: 50 uM, 231 sol, in vitro
Listed below: isoTOP-ABPP reactivity ratio at lysine P46783_K139 values for each entry.
Form field (numeric): enter value without unit.

Example entries and their recorded answers appear below.
Compound	Endpoint value
O=C(CCc1coc2cc(F)ccc2c1=O)Oc1c(F)c(F)c(F)c(F)c1F	1.0
O=C(Oc1c(F)c(F)c(F)c(F)c1F)C1CCN(C(=O)OCc2ccccc2)CC1	1.2
O=C(Oc1ccc([N+](=O)[O-])cc1[N+](=O)[O-])C(c1ccccc1)c1ccccc1 [fragment 30, 2,4-Dinitrophenyl 2,2-diphenylacetate]	1.2
COc1cc(CCC(=O)Oc2ccc([N+](=O)[O-])cc2[N+](=O)[O-])cc(OC)c1OC	0.7

Proceed to the following item.
Under RPS10 40S ribosomal protein S10 (Homo sapiens, UniProt P46783): isoTOP-ABPP reactivity ratio at lysine P46783_K139 value of O=C(CCc1cn(-c2ccccc2)nc1-c1ccccc1)Oc1ccc([N+](=O)[O-])cc1[N+](=O)[O-] ? 20.0
